Taken from patent US20250206837A1.

molecular target: T1, Recombinant His-tagged human CD36.ECD protein (Sino Biological) (human, UniProt P16671 30-439); assay: BLI (Octet), antibody on AHC sensor, His-tagged hCD36.ECD in solution, 1:1 fit
T1 construct: Bought protein; also called hCD36.ECD; hCD36; not shown: His tag
T1 sequence (P16671 30-439 limits assumed): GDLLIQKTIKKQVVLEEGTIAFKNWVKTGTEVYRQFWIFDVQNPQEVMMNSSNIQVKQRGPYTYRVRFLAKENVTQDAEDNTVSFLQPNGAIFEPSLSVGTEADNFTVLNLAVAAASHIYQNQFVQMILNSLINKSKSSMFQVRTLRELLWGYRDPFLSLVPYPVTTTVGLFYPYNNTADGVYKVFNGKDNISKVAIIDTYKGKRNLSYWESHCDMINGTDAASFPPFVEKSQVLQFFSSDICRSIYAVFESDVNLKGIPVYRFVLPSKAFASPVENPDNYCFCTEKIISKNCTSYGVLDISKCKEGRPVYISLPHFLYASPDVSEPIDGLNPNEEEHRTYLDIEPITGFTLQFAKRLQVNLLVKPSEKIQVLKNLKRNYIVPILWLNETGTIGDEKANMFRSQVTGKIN
Each item that follows carries a reported koff.
Just the number in s⁻¹, nothing appended.

# binder A8A (antibody, human IgG1, kappa, N297A, V domains shown, Full-length human IgG1-N297A, kappa; also called A8A (IgG1)) VH: EVQLVESGGGLVQPGGSLRLSCAASGFTISSFGIHWVRQAPGKGLEWVAWIAPYGGYTYYADSVKGRFTISADTSKNTAYLQMNSLRAEDTAVYYCARSFFGYFDYWGQGTLVTVSS VL: DIQMTQSPSSLSASVGDRVTITCRASQDVSNWVAWYQQKPGKAPKLLISYANSLYSGVPSRFSGSGSGTDFTLTISSLQPEDFATYYCQQHSNLPLTFGQGTKVEIKR ; its koff = 0.00462

Lab note: measured koff of 117_30DE (IgG4) (antibody, V domains shown, Human IgG4-S228P-FALA, kappa) VH: EVQLVESGGGLVQPGGSLRLSCAASGFTIDSFGIHWVRQAPGKGLEWVAWIAPYGGETYYADSVKGRFTISADTSKNTAYLQMNSLRAEDTAVYYCARSFFGYFDYWGQGTLVTVSS VL: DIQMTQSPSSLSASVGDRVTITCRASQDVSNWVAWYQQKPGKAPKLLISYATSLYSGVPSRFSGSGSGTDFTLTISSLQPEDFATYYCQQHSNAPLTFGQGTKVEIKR was 0.000981

Looking up 117_54E (IgG1) (antibody, V domains shown) VH: EVQLVESGGGLVQPGGSLRLSCAASGFTISSFGIHWVRQAPGKGLEWVAWIAPEGGYTYYADSVKGRFTISADTSKNTAYLQMNSLRAEDTAVYYCARSFFGYFDYWGQGTLVTVSS VL: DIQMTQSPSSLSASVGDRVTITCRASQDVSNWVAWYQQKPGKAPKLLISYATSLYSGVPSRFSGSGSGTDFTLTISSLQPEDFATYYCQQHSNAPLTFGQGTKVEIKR , I found its koff recorded as 0.00407

Entry 117_DA57D (IgG4) (antibody, V domains shown) VH: EVQLVESGGGLVQPGGSLRLSCAASGFTIDAFGIHWVRQAPGKGLEWVAWIAPYGGDTYYADSVKGRFTISADTSKNTAYLQMNSLRAEDTAVYYCARSFFGYFDYWGQGTLVTVSS VL: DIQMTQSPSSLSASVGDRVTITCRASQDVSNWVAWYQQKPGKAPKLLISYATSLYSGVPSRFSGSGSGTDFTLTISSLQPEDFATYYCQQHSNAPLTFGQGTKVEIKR , koff reported as 0.000838

Per the records, this binder ( 117_30AA (IgG4) (antibody, V domains shown, Human IgG4-S228P-FALA, kappa) VH: EVQLVESGGGLVQPGGSLRLSCAASGFTIAAFGIHWVRQAPGKGLEWVAWIAPYGGYTYYADSVKGRFTISADTSKNTAYLQMNSLRAEDTAVYYCARSFFGYFDYWGQGTLVTVSS VL: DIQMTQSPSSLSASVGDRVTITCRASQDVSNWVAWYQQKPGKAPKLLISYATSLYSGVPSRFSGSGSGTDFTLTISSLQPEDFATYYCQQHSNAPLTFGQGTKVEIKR ) has koff equal to 0.00282

// field: koff; key: 12P109 (antibody, human IgG1, kappa, N297A, V domains shown, Full-length human IgG1-N297A, kappa; also called 12P109 (IgG1)) VH: EVQLVESGGGLVQPGGSLRLSCAASGFTISSFGIHWVRQAPGKGLEWVAWIAPYGGYTYYADSVKGRFTISADTSKNTAYLQMNSLRAEDTAVYYCARSFFGYFDYWGQGTLVTVSS VL: DIQMTQSPSSLSASVGDRVTITCRASQDVSNWVAWYQQKPGKAPKLLISTSTSLYSGVPSRFSGSGSGTDFTLTISSLQPEDFATYYCQQYYTLPFTFGQGTKVEIKR ; value = 0.00963

get_value(item= 117_DA57E (IgG4) (antibody, V domains shown, Human IgG4-S228P-FALA, kappa) VH: EVQLVESGGGLVQPGGSLRLSCAASGFTIDAFGIHWVRQAPGKGLEWVAWIAPYGGETYYADSVKGRFTISADTSKNTAYLQMNSLRAEDTAVYYCARSFFGYFDYWGQGTLVTVSS VL: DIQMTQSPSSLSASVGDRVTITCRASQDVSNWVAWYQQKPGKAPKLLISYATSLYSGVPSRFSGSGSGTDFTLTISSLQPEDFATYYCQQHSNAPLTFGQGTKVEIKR , readout=koff) returns 0.000803

Item: 117_30DA (IgG4) (antibody, V domains shown, Human IgG4-S228P-FALA, kappa) VH: EVQLVESGGGLVQPGGSLRLSCAASGFTIDAFGIHWVRQAPGKGLEWVAWIAPYGGYTYYADSVKGRFTISADTSKNTAYLQMNSLRAEDTAVYYCARSFFGYFDYWGQGTLVTVSS VL: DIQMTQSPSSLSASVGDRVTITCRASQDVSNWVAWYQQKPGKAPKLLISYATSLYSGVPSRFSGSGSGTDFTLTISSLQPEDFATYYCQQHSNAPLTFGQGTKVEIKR | koff: 0.00133

Documented koff of 117_57EE (IgG1) (antibody, V domains shown) VH: EVQLVESGGGLVQPGGSLRLSCAASGFTISSFGIHWVRQAPGKGLEWVAWIAPYGGEEYYADSVKGRFTISADTSKNTAYLQMNSLRAEDTAVYYCARSFFGYFDYWGQGTLVTVSS VL: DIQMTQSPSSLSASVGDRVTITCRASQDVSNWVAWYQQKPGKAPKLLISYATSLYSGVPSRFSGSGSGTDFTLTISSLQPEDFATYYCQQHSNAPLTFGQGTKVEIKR : 0.00155
